// provenance: paper PMC9482650

# Tested System: T1, MPP6, Q9NZW5
# T1 sequence (Q9NZW5 125-219, limits assumed, looked up): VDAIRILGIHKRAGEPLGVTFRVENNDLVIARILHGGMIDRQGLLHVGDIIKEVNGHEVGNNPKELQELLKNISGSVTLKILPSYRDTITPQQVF
# Experimental Details: holdup assay
# Set-up: key: below the threshold = too weak to quantify, mostly under pKd 3.1 to 4
# Experimental Conditions: plain residues with an end cap or a label only (N-terminal biotin on a linker: ado-ado)
# key: entry, value: pKd
Reply: number alone, nothing else.

(Q) Report pKd, nothing else, for this binder: QKNKDKEYYV [NRXN3_rs746444206, Q9Y4C0]
(A) 4.43

Please find the next binder below.
(Q) Report pKd, nothing else, for this binder: TETASVCTKV [SLC23A1, Q9UHI7]
(A) 3.87
